assay: Antagonist activity at P2Y12 receptor in human platelet rich plasma assessed as inhibition of ADP-induced aggregation
measured quantity: IC50 (nM)
Hi! Could you send only the number? It should be in nM, unit omitted.

// below: answered molecules
CCCC(=O)c1cnn(-c2ccc(NC(=O)c3cn(CC(=O)N4CCN(C)CC4)c4ccc(C(F)(F)F)cc34)cc2)c1C : 700
CCCC(=O)c1cnn(-c2ccc(NC(=O)c3cn(CC(=O)N4CCN(C)CC4)c4cc(C)c(C)cc34)cc2)c1C : 500
CCOC(=O)c1c(C)nn(-c2ccc(NC(=O)Nc3ccccc3OCCCC(=O)O)cc2)c1C : 13000
CCCC(=O)c1cnn(-c2ccc(NC(=O)c3cn(CC(=O)N4CCN(C)CC4)c4ccc(OC)cc34)cc2)c1C : 400
CCCC(=O)c1cnn(-c2ccc(NC(=O)c3cn(CCCC(=O)O)c4ccc(C)cc34)cc2)c1C : 20000
CCOC(=O)c1c(C)nn(-c2ccc(NC(=O)Nc3ccc(Cl)cc3)cc2)c1C : 4500
CCCC(=O)c1cnn(-c2ccc(NC(=O)c3cn(CC(=O)N4CCN(C)CC4)c4ccc(Cl)cc34)cc2)c1C : 500
CCCC(=O)c1cnn(-c2ccc(NC(=O)c3cn(CC(=O)N4CCN5CCN(C)C(=O)C5C4)c4ccc(Cl)cc34)cc2)c1C (stereo not given) : 300
CCCC(=O)c1cnn(-c2ccc(NC(=O)c3cn(CC(=O)N4CCN(C)CC4)c4cc(C)c(Cl)cc34)cc2)c1C : 500
CCCC(=O)c1cnn(-c2ccc(NC(=O)c3cn(CC(=O)OC)c4ccc(C)cc34)cc2)c1C : 4100

INPUT: Using the record for CCCC(=O)c1cnn(-c2ccc(NC(=O)c3cn(CC(=O)O)c4ccc(C)cc34)cc2)c1C , report its IC50.
OUTPUT: 1800

INPUT: Using the record for CCCC(=O)c1cnn(-c2ccc(NC(=O)c3cn(CC(=O)N4CCN(C)CC4)c4cc(C)c(Br)cc34)cc2)c1C , report its IC50.
OUTPUT: 1100
